# experimentalSystem: UniProtKB Q94661
# Sequence (Q94661 whole entry): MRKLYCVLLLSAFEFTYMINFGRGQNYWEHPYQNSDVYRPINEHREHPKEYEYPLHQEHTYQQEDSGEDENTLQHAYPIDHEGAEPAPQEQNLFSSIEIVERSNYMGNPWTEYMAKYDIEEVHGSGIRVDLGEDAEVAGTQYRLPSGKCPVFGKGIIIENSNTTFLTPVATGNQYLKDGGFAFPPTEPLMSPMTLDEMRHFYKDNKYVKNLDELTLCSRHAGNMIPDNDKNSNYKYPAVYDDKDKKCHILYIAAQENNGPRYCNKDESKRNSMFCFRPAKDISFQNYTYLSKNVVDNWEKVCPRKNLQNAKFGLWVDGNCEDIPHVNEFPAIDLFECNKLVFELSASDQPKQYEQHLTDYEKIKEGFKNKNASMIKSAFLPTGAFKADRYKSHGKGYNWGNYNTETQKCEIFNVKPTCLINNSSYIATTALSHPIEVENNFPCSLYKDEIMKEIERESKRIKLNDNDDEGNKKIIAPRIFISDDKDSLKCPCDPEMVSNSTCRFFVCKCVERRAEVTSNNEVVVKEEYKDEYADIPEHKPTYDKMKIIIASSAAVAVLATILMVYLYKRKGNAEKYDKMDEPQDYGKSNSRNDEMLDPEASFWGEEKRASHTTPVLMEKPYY
pIC50: −log10 of the molar value.

{"columns": ["molecule", "pIC50"],
 "data": [
  ["COc1ccc(CN2CC(OCc3ccccc3F)CN(C(=O)CCc3c(C)nc4ncnn4c3C)CC2=O)cc1 (stereo unspecified)", 4.62]
]}
